Test system: Leishmania amazonensis
protocol: Anti-parasitic activity against amastigote stage of Leishmania amazonensis MHOM/BR/Josefa infected in BALB/c mouse Peritoneal macrophages after 48 hrs by Giemsa staining-based method
Format: functional, organism-based
observationType: pIC50
Hey, just a heads up that pIC50 is the negative log base 10 of the concentration in molar.

// lookup pIC50 for CC1=CC[C@@H](C(C)(C)NC(=S)N/N=C/c2ccc([N+](=O)[O-])cc2)CC1
5.11

----------
Please provide measured selectivity ratio for the entries that follow.
protocol: Selectivity index, ratio of cytotoxic activity for macrophages (unknown origin) to IC50 for amastigote stage of Leishmania infantum MHOM/BR/BH 46
Format: toxicity
measurementSetup: read-out: Ratio CC50/IC50
Lab note: jot down the number only; don't add units.

May I ask what selectivity ratio has been recorded for O=C1c2ccccc2C(=O)N1Nc1nc(-c2ccc(Cl)cc2Cl)cs1 ?
12

Fill in the blank: the reported selectivity ratio of O=C1c2ccccc2C(=O)N1Nc1nc(-c2ccc3ccccc3c2)cs1 is ____.
24
